B1: CPEB3 Ribozyme (parent)
chain: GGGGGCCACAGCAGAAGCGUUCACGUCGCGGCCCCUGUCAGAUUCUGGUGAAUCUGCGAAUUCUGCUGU

Variants of: B1
Test: self-cleavage, relative activity (ratio to wild type); higher = more cleavage; co-transcriptional
Mark class 1 for reported self-cleavage of 0.2 or greater; mark class 0 for anything smaller.

>  <mutation descriptor>
C29A G37A

>  <assigned category>
class 1

$$$$
>  <mutation descriptor>
A40C G50C

>  <assigned category>
class 1

$$$$
>  <mutation descriptor>
A15G C22A

>  <assigned category>
class 0

$$$$
>  <mutation descriptor>
G25A C45G

>  <assigned category>
class 0

$$$$
>  <mutation descriptor>
C6G A52U

>  <assigned category>
class 1

$$$$
>  <mutation descriptor>
A13C C32G

>  <assigned category>
class 0

$$$$
>  <mutation descriptor>
G25U C35U

>  <assigned category>
class 0

$$$$
>  <mutation descriptor>
G2U A16G

>  <assigned category>
class 0

$$$$
>  <mutation descriptor>
G2A G47U

>  <assigned category>
class 1

$$$$
>  <mutation descriptor>
C32A A42G

>  <assigned category>
class 1

$$$$
>  <mutation descriptor>
C45G U62A

>  <assigned category>
class 1

$$$$
>  <mutation descriptor>
C35A C39A

>  <assigned category>
class 1

$$$$
>  <mutation descriptor>
G2C U38A

>  <assigned category>
class 0

$$$$
>  <mutation descriptor>
A8U G37C

>  <assigned category>
class 0

$$$$
>  <mutation descriptor>
G17U U43G

>  <assigned category>
class 0

$$$$
>  <mutation descriptor>
G11C C18G

>  <assigned category>
class 0

$$$$
>  <mutation descriptor>
G25C U43A

>  <assigned category>
class 0

$$$$
>  <mutation descriptor>
G17U G48A

>  <assigned category>
class 1

$$$$
>  <mutation descriptor>
G50C U53A

>  <assigned category>
class 1

$$$$
>  <mutation descriptor>
C9G G41A

>  <assigned category>
class 1

$$$$
>  <mutation descriptor>
C32G U61G

>  <assigned category>
class 1

$$$$
>  <mutation descriptor>
A8U U44A

>  <assigned category>
class 1

$$$$
>  <mutation descriptor>
G2A C32A

>  <assigned category>
class 0

$$$$
>  <mutation descriptor>
C22G C24G

>  <assigned category>
class 0

$$$$
>  <mutation descriptor>
G19A U44C

>  <assigned category>
class 0

$$$$
>  <mutation descriptor>
G11A A40G

>  <assigned category>
class 1

$$$$
>  <mutation descriptor>
U21C U44G

>  <assigned category>
class 1

$$$$
>  <mutation descriptor>
U43G U64G

>  <assigned category>
class 1

$$$$
>  <mutation descriptor>
G5C C6A

>  <assigned category>
class 0

$$$$
>  <mutation descriptor>
C18G U67G

>  <assigned category>
class 1

$$$$
>  <mutation descriptor>
U44G U55G

>  <assigned category>
class 1

$$$$
>  <mutation descriptor>
C54A C66G

>  <assigned category>
class 1

$$$$
>  <mutation descriptor>
G41U A42U

>  <assigned category>
class 1

$$$$
>  <mutation descriptor>
C18G C63G

>  <assigned category>
class 0

$$$$
>  <mutation descriptor>
C32U C33G

>  <assigned category>
class 1

$$$$
>  <mutation descriptor>
C18A U20G

>  <assigned category>
class 0

$$$$
>  <mutation descriptor>
C35G C57U

>  <assigned category>
class 1

$$$$
>  <mutation descriptor>
A16G G28A

>  <assigned category>
class 1

$$$$
>  <mutation descriptor>
U20G C63A

>  <assigned category>
class 0

$$$$
>  <mutation descriptor>
A15C G30C

>  <assigned category>
class 0

$$$$
>  <mutation descriptor>
G37U C39A

>  <assigned category>
class 1

$$$$
>  <mutation descriptor>
C18A U64C

>  <assigned category>
class 0

$$$$
>  <mutation descriptor>
C18A G68U

>  <assigned category>
class 1

$$$$
>  <mutation descriptor>
G5U U69C

>  <assigned category>
class 1

$$$$
>  <mutation descriptor>
G3C G31A

>  <assigned category>
class 0

$$$$
